- Measured on: Ecdysone receptor (Bombyx mori) (UniProt P49881)
- Sequence (whole entry): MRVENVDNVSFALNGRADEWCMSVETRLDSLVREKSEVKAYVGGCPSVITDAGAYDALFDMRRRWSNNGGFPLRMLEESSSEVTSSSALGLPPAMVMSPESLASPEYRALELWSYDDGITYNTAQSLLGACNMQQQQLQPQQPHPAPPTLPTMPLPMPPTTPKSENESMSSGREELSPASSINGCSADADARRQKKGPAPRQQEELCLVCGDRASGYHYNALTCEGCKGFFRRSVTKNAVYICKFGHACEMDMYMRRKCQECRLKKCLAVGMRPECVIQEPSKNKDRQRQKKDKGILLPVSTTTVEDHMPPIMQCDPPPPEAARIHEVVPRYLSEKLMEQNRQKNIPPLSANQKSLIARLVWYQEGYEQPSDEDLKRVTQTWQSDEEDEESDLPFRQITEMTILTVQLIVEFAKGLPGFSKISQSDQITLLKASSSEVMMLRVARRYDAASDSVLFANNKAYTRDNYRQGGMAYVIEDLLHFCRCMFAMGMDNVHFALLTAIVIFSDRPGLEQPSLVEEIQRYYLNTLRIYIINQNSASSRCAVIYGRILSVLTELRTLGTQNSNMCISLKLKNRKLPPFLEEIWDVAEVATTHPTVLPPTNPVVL
- Experiment: Ratio of maximum level of gene expression (ecdysone receptor and beta-galactosidase receptor) of compound to maximum level of gene expression with GSTM-E expressed as RMFI
- Format: functional
Field 'label' (enum: fulfilled / not fulfilled). Set to fulfilled when Ratio is strictly under 0.7; else not fulfilled.

>  <Smiles data>
CCc1ccc(C(=O)NC2(C(=O)c3cc(C)cc(C)c3)CCCCC2)cc1

>  <Answer label>
fulfilled

$$$$
>  <Smiles data>
COc1cccc(C(=O)NC2(C(=O)c3cc(C)cc(C)c3)CCCCC2)c1C

>  <Answer label>
not fulfilled

$$$$
>  <Smiles data>
CCc1c(C(=O)NC2(C(=O)c3cc(C)cc(C)c3)CCCCC2)ccc2c1OCCO2

>  <Answer label>
not fulfilled

$$$$
>  <Smiles data>
COc1cccc(C(=O)NC2(C(=O)c3cc(C)cc(C)c3)CCOCC2)c1C

>  <Answer label>
fulfilled

$$$$
>  <Smiles data>
CCC(CC)(NC(=O)c1cccc(OC)c1C)C(=O)c1cc(C)cc(C)c1

>  <Answer label>
fulfilled

$$$$
>  <Smiles data>
COc1cccc(C(=O)NC2(C(=O)c3cc(C)cc(C)c3)CC2)c1C

>  <Answer label>
fulfilled

$$$$

----------
- Measured on: Ecdysone receptor (Bombyx mori)
- Experiment: Dose affording 50% of maximum transactivation for ecdysone receptor from Bombyx mori (BmEcR) and a beta-galactosidase reporter gene in HEK293 cell-line

>  <Compound>
COc1cccc(C(=O)NC2(C(=O)c3cc(C)cc(C)c3)CCCCCC2)c1C

>  <EC50 / µM>
1.61

$$$$
>  <Compound>
COc1cccc(C(=O)NC2(C(=O)c3cc(C)cc(C)c3)CCOCC2)c1C

>  <EC50 / µM>
10

$$$$
>  <Compound>
COc1cccc(C(=O)NC2(C(=O)c3cc(C)cc(C)c3)CCSCC2)c1C

>  <EC50 / µM>
1.6

$$$$
>  <Compound>
Cc1cc(C)cc(C(=O)C2(NC(=O)c3ccc4c(c3C)OCO4)CCCCC2)c1

>  <EC50 / µM>
3.68

$$$$
>  <Compound>
COc1ccccc1C(=O)C1(NC(=O)c2cccc(OC)c2C)CCCC1

>  <EC50 / µM>
5.16

$$$$
>  <Compound>
COc1cccc(C(=O)NC2(C(=O)c3cc(C)cc(C)c3)CCCCC2)c1C

>  <EC50 / µM>
1.41

$$$$
>  <Compound>
COc1cccc(C(=O)NC2(C(=O)c3cc(C)cc(C)c3)CCS(=O)(=O)CC2)c1C

>  <EC50 / µM>
15

$$$$
>  <Compound>
COc1ccccc1C(=O)C1(NC(=O)c2cccc(OC)c2C)CCCCCC1

>  <EC50 / µM>
1.94

$$$$
>  <Compound>
CCC(CC)(NC(=O)c1cccc(OC)c1C)C(=O)c1cc(C)cc(C)c1

>  <EC50 / µM>
4.53

$$$$
>  <Compound>
CCc1c(OC)cccc1C(=O)NN(C(=O)c1cc(C)cc(C)c1)C(C)(C)C

>  <EC50 / µM>
0.25

$$$$
>  <Compound>
COc1cccc(C(=O)NN(C(=O)c2cc(C)cc(C)c2)C(C)(C)C)c1C [METHOXYFENOZIDE]

>  <EC50 / µM>
0.1

$$$$
